Where do the numbers come from? From PubChem BioAssay (NCATS).

Assay: S16 Schwann cell PMP22 intronic element firefly luciferase assay (AID 624032); further: nearly all actives have a fitted effect of over 30% in size
Conditions: S16 rat Schwann cells, PMP22 element FLuc, 24 h; series mostly up to 25.7 µM
Results filed as inconclusive are left out. Calls of active or inactive are those of the source. The call rests on the fitted dose curve; in most records, active means well fitted inhibition curve with a large enough effect; inconclusive means small, poorly fitted or top-dose-only effect; inactive means no such curve, though single readings can be large or run the other way.
Labels: class 1 (active), class 0 (inactive)

Molecule: CC(=O)Nc1c(I)c(C(=O)N[C@H]2[C@@H](O)[C@H](O)[C@H](CO)O[C@@H]2O)c(I)c(N(C)C(C)=O)c1I
Category: class 0
//
Molecule: CO/N=C(/C(=O)NC1C(=O)N2C(C(=O)O)=C(CSc3nc(=O)c(O)nn3C)CSC12)c1csc(N)n1 (stereo not drawn)
Category: class 0
//
Molecule: CCC[C@H]1C(=O)N2C(N(C)C)=Nc3ccc(C)cc3N2C1=O
Category: class 0
//
Molecule: CC(C)N1CCN(c2ccc(OC[C@@H]3CO[C@@](Cn4cncn4)(c4ccc(Cl)cc4Cl)O3)cc2)CC1
Category: class 0
//
Molecule: COc1c(O)cc2c(c1O)[C@@H]1O[C@@H](CO)[C@@H](O)[C@@H](O)[C@@H]1OC2=O
Category: class 0
//
Molecule: CC(C)(O/N=C(\C(=O)N[C@@H]1C(=O)N2C(C(=O)[O-])=C(C[n+]3ccccc3)CS[C@@H]12)c1csc(N)n1)C(=O)O
Category: class 0
//
Molecule: CCN[C@@H]1C[C@H](C)S(=O)(=O)c2sc(S(N)(=O)=O)cc21
Category: class 0
//
Molecule: CN(C)[C@@H]1C(=O)C(C(N)=O)=C(O)[C@]2(O)C(=O)C3=C(O)c4c(O)ccc(Cl)c4[C@H](O)[C@H]3C[C@@H]12
Category: class 0
//
Molecule: C[N+]1(C)CCC[C@@H](OC(=O)C(O)(c2ccccc2)c2ccccc2)C1
Category: class 0
//
Molecule: NC(=O)OC[C@H](O)COc1ccc(Cl)cc1
Category: class 0
//
Molecule: Cc1cc(/C=C\c2ccc3cc(N(C)C)ccc3[n+]2C)c(C)n1-c1ccccc1
Category: class 1
//
Molecule: C[n+]1ccccc1/C=N\O
Category: class 0
//
Molecule: CN[C@@H]1[C@H](O[C@@H]2O[C@H](CO)[C@@H](N)[C@H](O)[C@@H]2O)O[C@H]2C[C@@H](N)[C@@H](O[C@H]3[C@@H](O)[C@H](O)[C@H](N)C[C@@H]3N)O[C@H]2[C@H]1O
Category: class 0
//
Molecule: Cn1c(=O)c2c(ncn2C[C@@H](O)CO)n(C)c1=O
Category: class 0
//
Molecule: CCN1C(=O)N[C@@H](c2ccccc2)C1=O
Category: class 0
//
Molecule: N[C@@H](CO)C(=O)NNCc1ccc(O)c(O)c1O
Category: class 0
//
Molecule: CC1(C)O[C@@H]2C[C@H]3[C@H]4C[C@H](F)C5=CC(=O)C=C[C@@]5(C)[C@@H]4[C@H](O)C[C@]3(C)[C@]2(C(=O)CO)O1
Category: class 0
//
Molecule: CC[C@H](NC(C)C)[C@H](O)c1ccc(O)c(O)c1
Category: class 1

----------
Target: Cytochrome P450 3A4 (Homo sapiens) (UniProt P08684)
Sequence (P08684 whole entry, looked up): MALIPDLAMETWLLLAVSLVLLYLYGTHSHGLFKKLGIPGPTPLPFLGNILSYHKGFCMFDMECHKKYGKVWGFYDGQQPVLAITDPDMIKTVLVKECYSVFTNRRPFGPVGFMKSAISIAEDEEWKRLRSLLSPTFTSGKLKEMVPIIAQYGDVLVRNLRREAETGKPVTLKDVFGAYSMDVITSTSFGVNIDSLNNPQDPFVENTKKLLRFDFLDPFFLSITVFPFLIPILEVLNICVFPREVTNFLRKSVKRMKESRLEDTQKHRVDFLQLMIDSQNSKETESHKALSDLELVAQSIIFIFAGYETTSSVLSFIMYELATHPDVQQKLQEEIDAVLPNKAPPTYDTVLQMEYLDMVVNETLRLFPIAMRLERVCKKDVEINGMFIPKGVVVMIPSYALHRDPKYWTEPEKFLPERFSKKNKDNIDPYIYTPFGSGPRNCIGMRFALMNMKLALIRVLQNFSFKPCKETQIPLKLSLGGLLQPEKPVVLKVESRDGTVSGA
Experiment: qHTS Assay for Inhibitors and Substrates of Cytochrome P450 3A4 (AID 884); further: nearly all actives have a fitted effect of over 50% in size
Conditions: recombinant CYP3A4, Luciferin-PPXE luminescence; series mostly up to 57.1 µM
Results filed as inconclusive are left out. The source made the active and inactive calls. The call rests on the fitted dose curve; in most records, active means well fitted inhibition curve with a large enough effect; inconclusive means small, poorly fitted or top-dose-only effect; inactive means no such curve, though single readings can be large or run the other way.
Labels: TRUE (active), FALSE (inactive)

Compound: N#Cc1cccc(-c2nccc(-n3ccnc3)n2)c1
Category: TRUE
--
Compound: COc1ccccc1CNc1ncncc1-c1cccc(NS(C)(=O)=O)c1
Category: TRUE
--
Compound: O=S(=O)(c1ccccc1)N1CCC2(CCCN(Cc3nccs3)C2)CC1
Category: TRUE
--
Compound: Cc1cccc(CNc2nc(-c3cccc(NS(C)(=O)=O)c3)nc3ccccc23)c1
Category: TRUE
--
Compound: CC(=O)NCCNc1nc(-c2ccc3c(c2)OCO3)nc2ccccc12
Category: TRUE
--
Compound: c1ccc(CNc2ccnc(-c3ccc4c(c3)OCO4)n2)cc1
Category: TRUE
--
Compound: COc1ccc(C(=O)N2CCC3(CC2)CCN(c2ncccn2)CC3)cc1
Category: FALSE
--
Compound: NC(Cc1ccc(O)c(O)c1)C(=O)O (centres undefined)
Category: FALSE
--
Compound: COc1cccc(-c2cncnc2NCc2cnc(C)cn2)c1
Category: TRUE
--
Compound: COc1ccc(CNc2ncnc3ccc(-c4ccoc4)cc23)c(OC)c1
Category: TRUE
--
Compound: COC(=O)N1CCC2(CC1)CN(c1ccccc1)C2
Category: FALSE
--
Compound: COc1ccccc1CCn1c(=O)c(-c2cn(C)c3ccccc23)nc2cncnc21
Category: TRUE
--
Compound: COc1ncc2nc(-c3ccc(F)cc3)c(=O)n(Cc3ccc(F)cc3)c2n1
Category: TRUE
--
Compound: COc1ccc(CNc2cc(-c3ccccc3OC)ncn2)c(OC)c1
Category: TRUE
--
Compound: COc1ccc(CNc2nc(-c3ccc4c(c3)OCO4)nc3ccccc23)c(OC)c1
Category: TRUE
--
Compound: c1csc(CNc2ncncc2-c2ccoc2)c1
Category: TRUE
--
Compound: Cc1ccccc1-c1ccc2ncnc(N(C)C)c2c1
Category: TRUE
--
Compound: O=C(c1cnccn1)N1CCC2(CCCN(C(c3ccccc3)c3ccccc3)C2)CC1
Category: TRUE
--
Compound: COC(=O)N1CCC2(CC1)CCN(c1ccccn1)CC2
Category: FALSE
--
Compound: CN(Cc1ccco1)c1ncncc1-c1cccc(NS(C)(=O)=O)c1
Category: TRUE
--
Compound: CS(=O)(=O)N1CCC2(CC1)CN(C(c1ccccc1)c1ccccc1)C2
Category: FALSE
--
Compound: COc1ccccc1CNc1ncncc1-c1ccccc1OC
Category: TRUE
--
Compound: Nc1ccccc1C(=O)CC(N)C(=O)O (centres undefined)
Category: FALSE
--
Compound: COc1ccc(Oc2ncc3nc(-c4cccs4)c(=O)n(Cc4cccc(OC)c4)c3n2)cc1
Category: TRUE
